test system: MCF7; assay: Growth inhibition of human MCF7 cells at 10^-5 M incubated for 48 hrs by sulforhodamine B assay relative to control; assay type: functional
Active and inactive are the calls of the source. No cut-off for these calls is given here.

{"MOLECULE": "Fc1ccc2nc(Cl)c(Cn3nnc(CSc4ccccc4)n3)cc2c1", "growth inhibition (GI)": "Active"}
{"MOLECULE": "Cc1ccc2nc(Cl)c(Cn3nnc(CSc4ccccc4)n3)cc2c1", "growth inhibition (GI)": "Active"}
{"MOLECULE": "Clc1nc2ccc(Br)cc2cc1Cn1nnnc1CSc1ccccc1", "growth inhibition (GI)": "Active"}

###

tested on: Aspergillus fumigatus; assay: Antifungal activity against Aspergillus fumigatus at 100 ug/ml by disc diffusion method; format: functional; settings: read-out: IZ
EXPERIMENTAL_READOUT: zone of inhibition at 100 µg/mL (mm)
One number for each entry, in mm.

Examples with answers:
{"MOLECULE": "Fc1ccc2nc(Cl)c(Cn3nnnc3CSc3ccccc3)cc2c1", "zone of inhibition at 100 µg/mL (mm)": 14}
{"MOLECULE": "COc1ccc2nc(Cl)c(Cn3nnc(CSc4ccccc4)n3)cc2c1", "zone of inhibition at 100 µg/mL (mm)": 20}

Could you tell me zone of inhibition at 100 µg/mL for each of these compounds? They are listed below.
1. Cc1ccc2nc(Cl)c(Cn3nnnc3CSc3ccccc3)cc2c1
2. Clc1nc2ccc(Br)cc2cc1Cn1nnc(Cc2ccccc2)n1
3. Clc1nc2ccc(Br)cc2cc1Cn1nnnc1CSc1ccccc1

Marked response:
[16, 13, 20]

// provenance: ChEMBL document CHEMBL4004849
